Recorded values, source PubChem BioAssay (NCI).

# Test system: PC-3 prostate
# method-description: NCI tumour cell line growth inhibition, 48 h; in the data active means GI50 below about 0.43 µM; inactive means the rest
Form entry, call: pick from 1 (yes) for active, 0 (no) for inactive

Solved cases (5 shown):
CCCCCCCCCCCCCCCCOCCCOP(=O)(O)C1CCCN(O)C1=O (stereo not drawn)
0 (no)
COc1cnc2c(c1)C(=O)c1c-2n(CCCN2CCN(C)CC2)c(=O)c2cc(Cl)ccc12
0 (no)
CC(=O)OCC1OC(S[As](C)C)C(OC(C)=O)C1OC(C)=O (stereo not drawn)
0 (no)
C/C(=C\c1c[nH]c2ccccc12)[N+](=O)[O-]
0 (no)
CO[C@H]1CC[C@@]2(C)C(=CC[C@H]3[C@@H]4C[C@H](O)C[C@@]4(C)CC[C@@H]32)C1
0 (no)

### Prompt Each compound tested received a call. Report the one for `COc1ccc2c(c1)Cc1c-2c(NN)nc2ccccc12` .
### Response 0 (no)

### Prompt Which outcome was assigned to `C/C(=C\c1ccn(-c2ccc(N)cc2)n1)[C@@H]1C[C@@H]2O[C@]2(C)CCC[C@H](C)[C@H](O)[C@@H](C)C(=O)C(C)(C)[C@@H](O)CC(=O)O1` in this test?
### Response 1 (yes)

### Prompt Identify the outcome logged in this assay for the compound shown: `O=C(/C=C\Sc1nccc(C(F)(F)F)n1)c1ccc(Br)cc1`
### Response 0 (no)

### Prompt Lab log entry: `O=C1/C(=C/c2ccc(Cl)cc2)CN(C(=O)C(Cl)Cl)C/C1=C\c1ccc(Cl)cc1` — outcome as called in the assay?
### Response 1 (yes)

### Prompt For this compound, state the assay outcome: `COc1cc(-c2nc3ccccc3s2)ccc1OCc1nc2n(n1)S(=O)(=O)c1ccccc1N2C`
### Response 0 (no)
